Measured values drawn from ChEMBL document CHEMBL1201862 for this set.

Molecular target: Paired box protein Pax-8 (Homo sapiens, UniProt Q06710)
Sequence (Q06710 whole entry): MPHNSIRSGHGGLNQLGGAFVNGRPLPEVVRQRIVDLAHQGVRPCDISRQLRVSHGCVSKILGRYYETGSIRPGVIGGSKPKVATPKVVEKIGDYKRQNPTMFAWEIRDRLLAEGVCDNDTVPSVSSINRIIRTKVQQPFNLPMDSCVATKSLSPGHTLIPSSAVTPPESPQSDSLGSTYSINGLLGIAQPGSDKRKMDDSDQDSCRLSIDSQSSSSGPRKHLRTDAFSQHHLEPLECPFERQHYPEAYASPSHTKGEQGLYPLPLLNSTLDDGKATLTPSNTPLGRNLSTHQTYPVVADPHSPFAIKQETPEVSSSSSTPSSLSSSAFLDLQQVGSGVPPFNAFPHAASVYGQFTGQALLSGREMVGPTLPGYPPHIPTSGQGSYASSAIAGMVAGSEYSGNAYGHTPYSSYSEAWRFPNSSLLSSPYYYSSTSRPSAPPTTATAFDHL
Test: PAX8 transcriptional activity inhibition in RMG-I – RMG-I cells, luciferase, cherry-pick, dose response (AID 687027);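 also: luciferase reporter driven by Pax8 target thyroperoxidase promoter measured by SteadyGlo luminescence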
Type: functional, cell-based
Activity calls are given as the source filed them.
Reported AC50 by item:
Endpoint Name: AC50

>>> result("CS(=O)(=O)c1ncc(Cl)c(C(=O)Nc2ccc3ccccc3c2)n1")
"7.81 µM (active)"
>>> result("O=[N+]([O-])c1ccc(O)c(-c2cc(C(F)(F)F)nc(-c3ccccc3)n2)c1")
"0.811 µM (active)"
>>> result("N#Cc1ccc(-c2ccc([C@@H]3[C@@H]4CN(C(=O)c5ccc6c(c5)OCO6)C[C@H]3N4)cc2)cc1")
"8.39 µM (active)"
>>> result("CS(=O)(=O)c1ccc(C(=O)OCC(=O)N2CCN(CCC3CCCCC3)CC2)cc1[N+](=O)[O-]")
"6.68 µM (active)"
>>> result("COc1ccc(S(=O)(=O)Nc2ccc3c(c2)C(=O)N([C@H](C)CO)C[C@H](C)[C@@H](CN(C)S(=O)(=O)c2ccc(C)cc2)OCCCC[C@H](C)O3)cc1")
"6.27 µM (active)"
>>> result("O=C(c1cc(-c2cccs2)on1)N1CCN(C(c2ccccc2)c2ccccc2)CC1")
"0.733 µM (active)"
>>> result("S=c1sc2c(Cl)ncnc2n1-c1ccccc1")
"7.52 µM (active)"
>>> result("CCCCn1c(N)c(N(CCC(C)C)C(=O)COC(=O)c2ccc([N+](=O)[O-])s2)c(=O)[nH]c1=O")
"8.14 µM (active)"
>>> result("C[C@@H]1CN([C@H](C)CO)S(=O)(=O)c2ccc(C#CC3CCCC3)cc2O[C@@H]1CN(C)C(=O)Cc1ccncc1")
"16.5 µM (active)"
>>> result("Cc1cc(-c2nnc(S)n2/N=C/C(Br)=C/c2ccccc2)[nH]n1")
"2.78 µM (active)"
>>> result("C[C@H](O)C#Cc1ccc2c(c1)O[C@@H](CN(C)Cc1ccc(-c3ccccc3)cc1)[C@@H](C)CN([C@H](C)CO)S2(=O)=O")
"4.57 µM (active)"
>>> result("COc1ccc(C(=O)CN2C(=O)c3ccccc3S2(=O)=O)cc1")
"3.53 µM (active)"
>>> result("C[C@@H]1CCCCO[C@@H](CN(C)C(=O)Nc2ccc(C(F)(F)F)cc2)[C@H](C)CN([C@@H](C)CO)C(=O)c2cc(NC(=O)Nc3ccc(C(F)(F)F)cc3)ccc2O1")
"2.31 µM (active)"
>>> result("C[C@@H]1CCCCO[C@@H](CN(C)CC2CCCCC2)[C@H](C)CN([C@H](C)CO)C(=O)c2cc(NS(=O)(=O)c3ccc(Cl)cc3)ccc2O1")
"5.5 µM (active)"
>>> result("CC(C)CC#Cc1ccc2c(c1)O[C@H](CN(C)S(=O)(=O)c1ccc(F)cc1)[C@@H](C)CN([C@@H](C)CO)S2(=O)=O")
"10.3 µM (active)"
>>> result("C[C@@H]1CCCCO[C@H](CN(C)C(=O)Cc2ccccc2)[C@@H](C)CN([C@@H](C)CO)C(=O)c2cc(NC(=O)Nc3ccc(C(F)(F)F)cc3)ccc2O1")
"2.85 µM (active)"
>>> result("Cc1cc(C2=NN=C(NC3CC3)SC2)c(C)n1-c1ccccc1F")
"< 0.26 µM (active)"
>>> result("CN(C)CCOc1ccc2c(c1)C(=O)C(=Cc1ncc([N+](=O)[O-])n1C)C2")
"1.89 µM (active)"
>>> result("Cc1cc(C)c(C(=O)/C=C/c2cccc3ccccc23)c(O)n1")
"5.27 µM (active)"
>>> result("N#C[C@@H]1[C@@H](c2ccc(-c3ccccc3F)cc2)[C@@H](CO)N1C(=O)C1CCC1")
"8.88 µM (active)"
>>> result("O=C(Cc1cccnc1)N1CCCCN2[C@H](C1)[C@H](c1ccc(C#CC3CCCC3)cc1)[C@@H]2CO")
"5.07 µM (active)"

----------
Target: Endoribonuclease toxin MazF (Escherichia coli K-12)
Sequence (P0AE70 whole entry): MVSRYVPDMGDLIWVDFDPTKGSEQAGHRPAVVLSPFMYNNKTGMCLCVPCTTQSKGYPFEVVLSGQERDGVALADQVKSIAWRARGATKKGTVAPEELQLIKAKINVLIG
Experiment: activation of MazEF endoribonuclease cleavage – biochemical, fluorescence, single-stranded RNA substrate, uHTS hits, dose response (AID 588481)
Type: functional
Active and inactive are the calls of the source.
EC50 values, listed per item
Endpoint Name: EC50

>>> result("COc1ccccc1N1C(=O)S/C(=C\\c2cc(C)n(C)c2C)C1=O")
"> 99 µM (inactive)"
>>> result("CC(=O)CSc1nc2cc3c(cc2cc1C#N)OCCO3")
"> 99 µM (inactive)"
>>> result("Cc1cc(NC(=O)/C(C#N)=C\\c2ccc(-c3ccc(SC(F)F)cc3)o2)n(-c2ccccc2)n1")
"> 99 µM (inactive)"
>>> result("CSc1ccc(S(=O)(=O)NCC(=O)OCCOc2ccccc2)cc1[N+](=O)[O-]")
"25.8 µM (inactive)"
>>> result("NNS(=O)(=O)c1ccc2c(c1)Cc1cc(S(=O)(=O)NN)ccc1-2")
"89.5 µM (inactive)"
>>> result("C=CCn1c(=O)/c(=C\\c2ccccn2)s/c1=C(/C#N)C(=O)NCC1CCCO1 (centres undefined)")
"> 99 µM (inactive)"
>>> result("COC(=O)c1nn2c(C(F)(F)F)cc(-c3ccc(Br)o3)nc2c1Br")
"> 99 µM (inactive)"
>>> result("Cc1ccc(-c2ccccc2NC(=O)C[S+]([O-])CC(=O)Nc2ccc(C)c(Cl)c2)o1 (centres undefined)")
"34.1 µM (inactive)"
>>> result("CN(C)c1ccc(/N=C/c2nc(-c3ccccc3)oc2O)cc1")
"46.7 µM (inactive)"

----------
Biological target: Sentrin-specific protease 8 (Homo sapiens)
Sequence (Q96LD8 whole entry): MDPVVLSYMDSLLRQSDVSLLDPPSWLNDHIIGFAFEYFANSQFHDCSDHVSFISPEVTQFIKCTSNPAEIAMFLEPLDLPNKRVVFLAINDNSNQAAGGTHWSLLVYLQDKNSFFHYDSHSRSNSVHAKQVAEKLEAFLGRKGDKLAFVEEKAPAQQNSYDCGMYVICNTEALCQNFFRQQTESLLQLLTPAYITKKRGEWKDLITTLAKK
Assay: inhibition of human SENP8 cleavage activity – biochemical, luminescence, SAR follow-up (AID 504501)
Assay type: functional
Active and inactive are the calls of the source.
Outcomes: t = active, f = inactive

>>> group("Oc1nnc(/C=C/c2ccc(F)cc2)o1")
"f"
>>> group("COc1cc2cc(NC(C)=O)cc(NCc3ccccc3)c2cc1OC")
"f"
>>> group("CN(C)c1cc(N/N=C\\c2ccccc2)nc(N(C)C)n1")
"t"
>>> group("Cc1cc(Cl)ccc1NC(=O)c1ccc2c(c1)OCO2")
"f"

----------
Target: Estrogen receptor (Homo sapiens);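 also: potency for inhibiting coactivator peptide recruitment to the receptor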
Sequence (P03372 whole entry): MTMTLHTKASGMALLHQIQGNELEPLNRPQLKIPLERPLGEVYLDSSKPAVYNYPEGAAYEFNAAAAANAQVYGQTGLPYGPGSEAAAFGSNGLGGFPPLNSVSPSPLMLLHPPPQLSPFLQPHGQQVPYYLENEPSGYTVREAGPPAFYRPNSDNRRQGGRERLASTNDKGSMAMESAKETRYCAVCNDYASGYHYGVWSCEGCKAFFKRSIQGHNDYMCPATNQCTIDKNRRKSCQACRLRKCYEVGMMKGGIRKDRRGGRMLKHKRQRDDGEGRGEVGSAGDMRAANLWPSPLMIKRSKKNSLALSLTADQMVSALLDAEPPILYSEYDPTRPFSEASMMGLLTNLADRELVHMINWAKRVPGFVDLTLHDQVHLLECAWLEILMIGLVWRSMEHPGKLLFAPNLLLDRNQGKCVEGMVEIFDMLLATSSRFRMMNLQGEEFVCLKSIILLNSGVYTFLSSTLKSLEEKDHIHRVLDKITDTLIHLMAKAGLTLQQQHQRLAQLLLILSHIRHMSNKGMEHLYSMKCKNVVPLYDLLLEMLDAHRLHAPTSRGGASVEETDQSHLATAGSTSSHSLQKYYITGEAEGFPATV
Activity calls are given as the source filed them.
Endpoint Name: IC50

>>> result("Cc1c(C(=O)OCC2CCCO2)[nH]c2c1C(=O)CC(c1ccco1)C2 (centres undefined)")
"32.1 µM (not active)"
>>> result("O=C(O)c1ccc2c(c1)[C@@H]1C=CC[C@@H]1[C@H](c1ccccn1)N2")
"9.53 µM (active)"
>>> result("CCN=c1ccc(Br)cc(C(=O)/C=C/c2ccccc2Cl)c1O")
"3.11 µM (active)"
>>> result("Cn1c(=O)[nH]c(=O)c2c1nc1n2CCCN1CCc1ccccc1")
"> 50 µM (not active)"

----------
# CC50 per record follows
Assay: A Cell Based Secondary Assay To Explore Cytotoxicity of Compounds that Sensitize Mycobacterium Tuberculosis to Beta-Lactam Antibiotics.
Assay type: functional
The source made the active and inactive calls.
Endpoint Name: CC50

>>> result("Sc1ncnc2scc(-c3ccc(Br)cc3)c12")
"25.9 µM (active)"
>>> result("O=C(Nc1cccc(Cl)c1N1CCOCC1)c1ccc([N+](=O)[O-])o1")
"> 40 µM (active)"
>>> result("COc1cc(C(=O)Oc2ccccc2/C=N/NC(=O)c2ccc(C)c(Cl)c2)cc(OC)c1OC")
"2.84 µM (active)"
>>> result("Cc1ccc2nc(-c3ccc(NC(=S)NC(=O)C(C)C)cc3)sc2c1")
"> 40 µM (active)"

----------
Target: Caspase-3 (Homo sapiens)
Assay: SAR Analysis of small molecule inhibitors of Sentrin-specific proteases (SENPs) using a Caspase-3 Selectivity assay. [Related pubchem assays (depositor defined):AID2540, AID2599, AID434973, AID489001]
Format: functional
The source made the active and inactive calls.
Outcomes: True (active), False (inactive)

>>> group("COc1cc2cc(NC(C)=O)cc(NCc3ccccc3)c2cc1OC")
"False"
>>> group("Cc1cc(Cl)ccc1NC(=O)c1ccc2c(c1)OCO2")
"True"
>>> group("Oc1nnc(/C=C/c2ccc(F)cc2)o1")
"False"
>>> group("CN(C)c1cc(N/N=C\\c2ccccc2)nc(N(C)C)n1")
"True"

----------
Test: DRD fibroblast viability loss – cell-based, non-viral oncogenic, luminescence, dose response (AID 1934)
Type: functional
Conditions: Homo sapiens
Activity calls are given as the source filed them.
Endpoint Name: EC50

>>> result("CCCCC(=O)NC(c1ccc(C(C)C)cc1)c1ccc2cccnc2c1O (stereo not given)")
"4.19 µM (active)"
>>> result("CCN1/C(=C/c2ccc3ccccc3[n+]2CC)C=Cc2ccccc21")
"3.27 µM (active)"
>>> result("COc1ccc(N(Cc2cc(O)nc3ccccc23)C(=O)CCl)cc1")
"4.96 µM (inconclusive)"
>>> result("CC(=O)c1cccc(NC(=O)/C=C/c2ccc([N+](=O)[O-])s2)c1")
"5.53 µM (active)"
>>> result("Brc1ccc(-c2nnc3sc(CN4CCN(c5ccccc5)CC4)cn23)cc1")
"> 150 µM (not active)"
